Test system: Moraxella catarrhalis
EXPERIMENT DESCRIPTION: Antibacterial activity against Moraxella catarrhalis BC-3531
Type: functional
REPORTED PROPERTY: MIC (µg/mL)
Just the number in µg/mL, nothing appended.

Worked examples follow.
{"columns": ["COMPOUND", "SYSTEM NAME", "MIC / µg/mL"],
 "data": [
  ["Cc1c(N2CC[C@@H]([C@H](C)NCCC#N)C2)c(F)cc2c(=O)c(C(=O)O)cn(C3CC3)c12", "Moraxella catarrhalis", 0.015],
  ["COc1c(N2CC[C@@H]([C@H](C)N)C2)ccc2c(=O)c(C(=O)O)cn(C3CC3)c12", "Moraxella catarrhalis", 0.06],
  ["CC1COc2c(N3CC[C@@H]([C@@H](N)CC#N)C3)c(F)cc3c(=O)c(C(=O)O)cn1c23 (some centres undefined)", "Moraxella catarrhalis", 0.125]
]}

# evaluate next
Provide only the value of recorded MIC for Cc1c(N2CC[C@@H]([C@H](C)N)C2)c(F)cc2c(=O)c(C(=O)O)cn(C3CC3)c12
0.015

Hello, the source for this data is ChEMBL document CHEMBL1144619, in case you need it.
